This collection of values is drawn from patent US20170298395A1.

Test system: RubisCO
Assay type: cell-based, Ralstonia eutropha
Details: Table 12, chemoautotrophic (induced) growth
Measured Chemoautotrophic RubisCO activity accompanies every entry in the list below.

Completed entries (count: 3):
molecule	Chemoautotrophic RubisCO activity
G125D (protein) MSSFLRALTLRQLQIFVTVARHASFVRAAEELHLTQPAVSMQVKQLESVVGMALFERVKGQLTLTEPGDRLLHHASRILGEVKDAEEGLQAVKDVEQGSITIGLISTSKYFAPKLLAGFTALHPDVDLRIAEGNRETLLRLLQDNAIDLALMGRPPRELDAVSEPIAAHPHVLVASPRHPLHDAKGFDLQELRHETFLLREPGSGTRTVAEYMFRDHLFTPAKVITLGSNETIKQAVMAGMGISLLSLHTLGLELRTGEIGLLDVAGTPIERIWHVAHMSSKRLSPASESCRAYLLEHTAEFLGREYGGLMPGRRVA	298 nmol/min/mg of protein
E87K (protein) MSSFLRALTLRQLQIFVTVARHASFVRAAEELHLTQPAVSMQVKQLESVVGMALFERVKGQLTLTEPGDRLLHHASRILGEVKDAEKGLQAVKDVEQGSITIGLISTSKYFAPKLLAGFTALHPGVDLRIAEGNRETLLRLLQDNAIDLALMGRPPRELDAVSEPIAAHPHVLVASPRHPLHDAKGFDLQELRHETFLLREPGSGTRTVAEYMFRDHLFTPAKVITLGSNETIKQAVMAGMGISLLSLHTLGLELRTGEIGLLDVAGTPIERIWHVAHMSSKRLSPASESCRAYLLEHTAEFLGREYGGLMPGRRVA	305 nmol/min/mg of protein
D144N (protein) MSSFLRALTLRQLQIFVTVARHASFVRAAEELHLTQPAVSMQVKQLESVVGMALFERVKGQLTLTEPGDRLLHHASRILGEVKDAEEGLQAVKDVEQGSITIGLISTSKYFAPKLLAGFTALHPGVDLRIAEGNRETLLRLLQNNAIDLALMGRPPRELDAVSEPIAAHPHVLVASPRHPLHDAKGFDLQELRHETFLLREPGSGTRTVAEYMFRDHLFTPAKVITLGSNETIKQAVMAGMGISLLSLHTLGLELRTGEIGLLDVAGTPIERIWHVAHMSSKRLSPASESCRAYLLEHTAEFLGREYGGLMPGRRVA	314 nmol/min/mg of protein

Please look at the following molecule next.
**Q:** Requested field: Chemoautotrophic RubisCO activity. Item: G125S/V265M (protein) MSSFLRALTLRQLQIFVTVARHASFVRAAEELHLTQPAVSMQVKQLESVVGMALFERVKGQLTLTEPGDRLLHHASRILGEVKDAEEGLQAVKDVEQGSITIGLISTSKYFAPKLLAGFTALHPSVDLRIAEGNRETLLRLLQDNAIDLALMGRPPRELDAVSEPIAAHPHVLVASPRHPLHDAKGFDLQELRHETFLLREPGSGTRTVAEYMFRDHLFTPAKVITLGSNETIKQAVMAGMGISLLSLHTLGLELRTGEIGLLDMAGTPIERIWHVAHMSSKRLSPASESCRAYLLEHTAEFLGREYGGLMPGRRVA
**A:** 259 nmol/min/mg of protein
